Attribution: paper PMC3513969

Experiment: Single dose escalation and multiple dosing pharmacokinetic study of LipoCol Forte
Conditions: human, plasma, oral, 4 LipoCol Forte capsules, AUC0–inf, healthy subjects, fed, single dose four LipoCol Forte capsules; mean ± SD, n = 14
READOUT: AUC(0-inf) (ng·h/mL)
Give bare numbers, in ng·h/mL.

Query block: # input molecule: CC[C@H](C)C(=O)O[C@H]1C[C@@H](C)C=C2C=C[C@H](C)[C@H](CC[C@@H]3C[C@@H](O)CC(=O)O3)[C@H]21 [Pure lovastatin, lovastatin, reference compound] ; wanted: its AUC(0-inf)
Result block: 26.8

Switching to the query record.
Query block: # input molecule: CC[C@H](C)C(=O)O[C@H]1C[C@@H](C)C=C2C=C[C@H](C)[C@H](CC[C@@H](O)C[C@@H](O)CC(=O)O)[C@H]21 ; wanted: its AUC(0-inf)
Result block: 169
